Listed here: items and their measured yeast fitness.
B1: tRNA (parent)
chain: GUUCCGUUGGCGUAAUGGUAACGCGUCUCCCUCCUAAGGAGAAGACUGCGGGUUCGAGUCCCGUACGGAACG

variants of: B1; experiment: yeast fitness relative to wild type (ratio to wild type); higher = fitter; tRNA-Arg(CCU), competitive growth, 37 C, YPD
This sample holds only a part of the variants without activity.
// response body must contain only the number

The examples below pair each entry with its known result.
sequence-chain: GUUCCGUUGGCCUAAUCGUAACGCGUCUCCCUCCUAAGGAGAAGACUGCGGGUUCGAGUCCCGUACGGAACG
recorded-measurement: 0.637
//
sequence-chain: GUUCCGCUGGCGUAAUGGUAACGCGUCUCUCUCCUAAGGAGAAGACUGCGGGUUCGAGUCCCGUACGGAACG
recorded-measurement: 0.826
//
sequence-chain: GUUCCGUUGGCGUAAUGGUAACGCGUCUCCCUCCUAAGGAGAAGACUGCAAGUUCGAGUCCCGUACGGAACG
recorded-measurement: 0.645

Value lookup for yeast fitness; key = GUUCCGUUAGCGUAAUGGUAACGCGUCUCCCUCCUAAGGAGAUGACUGCGGGUUCGAGUCCCGUACGGAACG
1.08

# repeat for GUUACGUUGGCGUAAUGGUAACGCGUCUCCCUCCUCAGGAGAAGACUGCGGGUUCGAGUCCCGUACGGAACG
0.686

# iterate: GUUCGGUUGGCGUAAUGGUAAAGCGUCUCCCUCCUAGGGAGAAGACUGCCGGUUCGAGUCCCGUACGGAACG
0.55

Follow-up item: GUUCCGUUGGCGUAAUGGUAACGCGUCUCCCUCAUAAGGAGAAGACUGCGGGUUCGAGUCCUGUACGGAACG
0.785

Now consider GUUCCGUUGGAGUAAUGGUAACGCGUCUCCGUCCUAAGGAGAAGACUGCGGGUUCGAGUCCCGUACGGAACG and answer again.
0.592

Another variant to check: GAUCCGUUGGCGUAAUGGUAACGCGUCUCCCACCUAAGGAGAAGACUGCGGGUUCGAGUCCCGAUCGGAACG
0.581

Next: GUUCCGUUGGUGCAAUGGUAACGAGUCUCCCUCCUAAGGAGACGACUGCCGGUUCGAGUGCCGUACGGAUCG
0.567

Same thing, different variant: GUUCCGUUGGCGUAUUGGUAACGCCUCUCCCUCAUAAGGAGAAGACUGCGGGUUCGAGUCCCGUACGGAACG
0.941

Proceed to GUACCGUUGGCGCAAUGGUAACGCAUCUCCCUCCUAAGGAGAAGACUGCGGGUUCGAGUCCCGUACGGAACG
0.67

GUUCCGUUAGUGUAAUGGUAACGCGUCUCCCUCCUAAGGAGAAGACUGCGGGUUCGAGUCACGUACGGAACG ?
0.56
